# DP per record follows
assay: Stability: degradation products (DP) and appearance (color) under stress conditions; assay type: physicochemical; conditions: 0.1% solutions or suspensions, 1 week 80° C. or 50° C.; Water
Value expressed in %; do not type the unit.

The compound listed as CS(=O)(=O)O.Cn1c(Nc2ccc(C(F)(F)F)cc2)nc2cc(Oc3ccnc(-c4ncc(C(F)(F)F)[nH]4)c3)ccc21 [Mesylate] has a reported DP of 0.5

Lookup result for Cn1c(Nc2ccc(C(F)(F)F)cc2)nc2cc(Oc3ccnc(-c4ncc(C(F)(F)F)[nH]4)c3)ccc21 [API] ; measured DP: 0.6

For this compound ( CCS(=O)(=O)O.Cn1c(Nc2ccc(C(F)(F)F)cc2)nc2cc(Oc3ccnc(-c4ncc(C(F)(F)F)[nH]4)c3)ccc21 [Esylate] ), measured DP is 0.4

Value of DP reported for the compound Cn1c(Nc2ccc(C(F)(F)F)cc2)nc2cc(Oc3ccnc(-c4ncc(C(F)(F)F)[nH]4)c3)ccc21.O=C(O)/C=C\C(=O)O [Maleate] is 0.3

* * *

assay: Thermogravimetry / loss on drying; format: physicochemical; conditions: Heating rate 20 K/min
Here, each record is paired with measured Thermogravimetry (weight loss in %) data.

Record excerpt, results attached:
>>> reading("Cn1c(Nc2ccc(C(F)(F)F)cc2)nc2cc(Oc3ccnc(-c4ncc(C(F)(F)F)[nH]4)c3)ccc21.O=C(O)/C=C\\C(=O)O [Maleate]")
"0.11%"
>>> reading("CS(=O)(=O)O.Cn1c(Nc2ccc(C(F)(F)F)cc2)nc2cc(Oc3ccnc(-c4ncc(C(F)(F)F)[nH]4)c3)ccc21 [Mesylate]")
"1.3%"
>>> reading("Cn1c(Nc2ccc(C(F)(F)F)cc2)nc2cc(Oc3ccnc(-c4ncc(C(F)(F)F)[nH]4)c3)ccc21 [API]")
"3.3%"

Read the next record carefully.
// Thermogravimetry (weight loss in %) lookup, molecule = CCS(=O)(=O)O.Cn1c(Nc2ccc(C(F)(F)F)cc2)nc2cc(Oc3ccnc(-c4ncc(C(F)(F)F)[nH]4)c3)ccc21 [Esylate] , result: 2.1%

* * *

assay: Stability: degradation products (DP) and appearance (color) under stress conditions; type: physicochemical; conditions: Xenon light (approx. 1200 kLuxh); Bulk (HPLC)
Reported property: DP (%)
Write it as a number; the unit % goes unstated.

Illustrative cases are given below, each with its answer.
>>> reading("CS(=O)(=O)O.Cn1c(Nc2ccc(C(F)(F)F)cc2)nc2cc(Oc3ccnc(-c4ncc(C(F)(F)F)[nH]4)c3)ccc21 [Mesylate]")
0.6
>>> reading("Cn1c(Nc2ccc(C(F)(F)F)cc2)nc2cc(Oc3ccnc(-c4ncc(C(F)(F)F)[nH]4)c3)ccc21 [API]")
0.6
>>> reading("Cn1c(Nc2ccc(C(F)(F)F)cc2)nc2cc(Oc3ccnc(-c4ncc(C(F)(F)F)[nH]4)c3)ccc21.O=C(O)/C=C\\C(=O)O [Maleate]")
0.3

Kindly note the recorded DP for CCS(=O)(=O)O.Cn1c(Nc2ccc(C(F)(F)F)cc2)nc2cc(Oc3ccnc(-c4ncc(C(F)(F)F)[nH]4)c3)ccc21 [Esylate] , which is 0.7

* * *

assay: Determination of solubility at 25° C.; format: physicochemical; settings: aqueous medium at pH 4.5, 25 °C, pH 4.5, aqueous buffer, thermodynamic from solid; read-out: Solubility (approx. at 25° C.) (HPLC)
Reported property: solubility (µg/mL)
Enter your answer as a number in µg/mL; do not include the unit.

Below: 3 compounds and their reported solubility.
>>> reading("Cn1c(Nc2ccc(C(F)(F)F)cc2)nc2cc(Oc3ccnc(-c4ncc(C(F)(F)F)[nH]4)c3)ccc21.O=C(O)/C=C\\C(=O)O [Maleate]")
0.03
>>> reading("CCS(=O)(=O)O.Cn1c(Nc2ccc(C(F)(F)F)cc2)nc2cc(Oc3ccnc(-c4ncc(C(F)(F)F)[nH]4)c3)ccc21 [Esylate]")
3.7
>>> reading("Cn1c(Nc2ccc(C(F)(F)F)cc2)nc2cc(Oc3ccnc(-c4ncc(C(F)(F)F)[nH]4)c3)ccc21 [API]")
0.09

// solubility value for CS(=O)(=O)O.Cn1c(Nc2ccc(C(F)(F)F)cc2)nc2cc(Oc3ccnc(-c4ncc(C(F)(F)F)[nH]4)c3)ccc21 [Mesylate] : 0.1
